Known pIC50 of a selection of compounds
# study system: CathepsinA (Homo sapiens)
# Construct: purchased R&D Systems 1049-SE
# Sequence (P10619 29-480): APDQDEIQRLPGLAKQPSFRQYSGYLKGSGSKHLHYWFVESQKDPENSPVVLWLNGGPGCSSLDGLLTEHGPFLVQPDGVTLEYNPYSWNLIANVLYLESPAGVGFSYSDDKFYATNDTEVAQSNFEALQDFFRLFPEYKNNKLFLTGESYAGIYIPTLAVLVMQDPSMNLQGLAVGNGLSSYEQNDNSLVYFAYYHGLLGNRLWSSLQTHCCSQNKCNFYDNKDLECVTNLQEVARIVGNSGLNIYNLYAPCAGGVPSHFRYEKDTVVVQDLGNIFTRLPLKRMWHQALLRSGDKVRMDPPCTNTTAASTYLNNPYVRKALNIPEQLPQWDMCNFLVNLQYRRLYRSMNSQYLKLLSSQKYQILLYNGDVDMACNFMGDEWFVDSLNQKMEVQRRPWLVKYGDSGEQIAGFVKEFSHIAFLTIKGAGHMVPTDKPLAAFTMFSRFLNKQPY
# experiment description: Serine protease inhibition: cathepsin A
# Assay type: biochemical, mammalian
# condition context: Table 8B; read-out: IC50 CathepsinA
pIC50: −log10 of the molar value.

Consider the worked cases shown below.
O=C(N[C@H]1Cc2cccc(C(=O)O)c2OB1O)c1cncs1 = 3.30 to 4.82
O=C(N[C@H]1Cc2cccc(C(=O)O)c2OB1O)c1cccnc1 = 3.30 to 4.82
Nc1nnc(SCC(=O)N[C@H]2Cc3cccc(C(=O)O)c3OB2O)s1 = 3.30 to 4.82
O=C(COCc1ccccc1)N[C@H]1Cc2cccc(C(=O)O)c2OB1O [CPD B, reference compound] = 3.30 to 4.82
O=C(N[C@H]1Cc2cccc(C(=O)O)c2OB1O)c1cncc(F)c1 = 3.30 to 4.82
[N-]=[N+]=NCC(=O)N[C@H]1Cc2cccc(C(=O)O)c2OB1O = 3.30 to 4.82

pIC50 measured on O=CN[C@H]1Cc2cccc(C(=O)O)c2OB1O = < 3.30

Record O=C(CSC(F)F)N[C@H]1Cc2cccc(C(=O)O)c2OB1O . Reported pIC50: > 4.82

Input O=C(Cc1cccs1)N[C@H]1Cc2cccc(C(=O)O)c2OB1O [CPD A, reference compound] . Output pIC50: > 4.82

pIC50 for O=C(CSc1nncs1)N[C@H]1Cc2cccc(C(=O)O)c2OB1O is 3.30 to 4.82

pIC50 recorded for this compound, CSC(=O)N[C@H]1Cc2cccc(C(=O)O)c2OB1O , is 3.30 to 4.82

meta.source: patent US9101638B2
